Particle size (nm) for assorted compounds
# Experimental Details: Particle size and PDI of lipid nanoparticles (Nano-ZSZEN3600, Malvern)
# Assay type: physicochemical
# Protocol Conditions: LNPs, Formulation method 2 (amino lipid:DSPC:cholesterol:PEG2000-DMG 50:10:38.5:1.5), Fluc mRNA
Recorded Endpoint: Particle size (nm)

In [3]: df
Out[3]:
                           structure_smiles  value_unit  reported_measurement
0  CCCCCCCCCCCCCNc1nc(NCCCN(C)C)nc(SCCCCCCCCCCCC)n1          nm                    96
1  CCCCCCCCCCCCCCCCSc1nc(NCCCN2CCN(C)CC2)nc(SCCCCCCCC)n1          nm                   115
2  CCCCCCCC/C=C\CCCCCCCCSc1nc(OCCN2CCCC2)nc(SCCCCCCCCC)n1          nm                    88
3  CCCCCCCC/C=C\CCCCCCCCSc1nc(OCC2CCN(C)CC2)nc(SCCCCCCCCC)n1          nm                   110

---

# Test system: HEK293 cells
# Experimental Details: Preliminary screening as DNA vectors, GFP transfection of HEK293 cells
# Type: cell-based
# Protocol Conditions: HEK293 cells; lipid/DOPE liposome with 75 ng plasmid DNA (psin-EGFP-IRES-Puro); number of cells expressing GFP divided by total number of nuclei (Hoechst)
Decision: Absolute DNA transfection efficiency in HEK293 cells compared against 2%; not below it gives Criterion met, below it gives Criterion not met.

                                    compound              group
 0  CCCCCCCCCCCCCCCCNc1nc(NCCCCCCCCCCCCCCC)nc(NCCCN2CCN(C)CC2)n1 [Compound N15N16D9]      Criterion met
 1  CCCCCCCCCCCCCCCSc1nc(NCCN2CCOCC2)nc(SCCCCCCCCCCCCCC)n1 [Compound S14S15D2]  Criterion not met
 2  CCCCCCCCCCCCCCCSc1nc(NCCCN2CCOCC2)nc(SCCCCCCCCCCCC)n1 [Compound S12S15D8]      Criterion met
 3  CCCCCCCCCCCCCCCCSc1nc(NCCN2CCCC2)nc(SCCCCCCCCCCCCCCC)n1 [Compound S15S16D3]  Criterion not met
 4  CCCCCCCCCCCCCCCNc1nc(NCCCCCCC)nc(NCCN2CCCCC2)n1 [Compound N7N15D4]  Criterion not met
 5  CCCCCCCCCCCCN(CCCCCCCCCCCC)c1nc(NCCCCCCCC)nc(NCCN2CCCC2)n1 [N8^2N12D3]  Criterion not met
 6  CCCCCCCCCCCCCCCCSc1nc(NCCN2CCOCC2)nc(SCCCCCCCCCCCCCC)n1 [Compound S14S16D2]  Criterion not met
 7  CCCCCCCCCCCCN(CCCCCCCCCCCC)c1nc(NCCN2CCOCC2)nc(N(CCCCCCCCCCCC)CCCCCCCCCCCC)n1 [2N12^2N12D2]  Criterion not met
 8  CCCCCCCCCCCCN(CCCCCCCCCCCC)c1nc(NCCCCCC)nc(NCCN2CCCCC2)n1 [N6^2N12D4]  Criterion not met
 9  CCCCCCCCCCCNc1nc(NCCCCCCCCCCC)nc(NCCCN2CCN(C)CC2)n1 [Compound N11N11D9]  Criterion not met
10  CCCCCCCCCCSc1nc(NCCN2CCCC2)nc(SCCCCCCCCCC)n1 [Compound S10S10D3]      Criterion met
11  CCCCCCCCCCCCCCSc1nc(NCCCN(C)C)nc(SCCCCCCCC)n1 [Compound S8S14D6]      Criterion met
12  CCCCCCCCCCCCCCCCNc1nc(NCCCCCCCC)nc(NCC2CCN(C)CC2)n1 [Compound N8N16D10]      Criterion met
13  CCCCCCCCCCSc1nc(NCCN2CCOCC2)nc(SCCCCCCCCC)n1 [Compound S9S10D2]      Criterion met
14  CCCCCCCCCSc1nc(NCC2CCN(C)CC2)nc(SCCCCCCCCC)n1 [Compound S9S9D10]      Criterion met

---

# System: HEK293 cells
# Experimental Details: Preliminary screening as mRNA vectors, EGFP mRNA transfection of HEK293 cells
# Format: cell-based
# Protocol Conditions: HEK293 cells, 96-well plates, EGFP mRNA 50 ng per well; percentage of GFP fluorescent cells relative to total number of cells (Hoechst)
Binary label based on Absolute mRNA transfection efficiency in HEK293 cells with cut-off 3%: below gives rule met, not below gives rule not met.

>>> df
                            structure_smiles         group
 0  CCCCCCCCCCCCCCCCSc1nc(NCCN2CCN(C)CC2)nc(SCCCCCCCCC)n1  rule not met
 1  CCCCCCCCCCCCN(CCCCCCCCCCCC)c1nc(NCCCCCCCC)nc(NCCN2CCCC2)n1      rule met
 2  CCCCCCCCCCCCCCCSc1nc(NCCCN2CCOCC2)nc(SCCCCCCCCCCCC)n1  rule not met
 3     CCCCCCCCNc1nc(NCCCCCC)nc(NCCCN(C)C)n1      rule met
 4  CCCCCCCCCCCCCCCCNc1nc(NCCCN2CCOCC2)nc(N(CCCCCCCCCCCC)CCCCCCCCCCCC)n1  rule not met
 5  CCCCCCCCCCCCCCCNc1nc(NCCCCCCCCC)nc(NCCN2CCCCC2)n1      rule met
 6  CCCCCCCCCCCCCCSc1nc(NCCN(CC)CC)nc(SCCCCCCCCCCC)n1      rule met
 7  CCCCCCCCCCCCCCCCSc1nc(NCCN2CCCC2)nc(SCCCCCCCCCCCC)n1      rule met
 8  CCCCCCCCCCCCCCCCCCNc1nc(NCCCCCC)nc(NCCCN2CCN(C)CC2)n1      rule met
 9  CCCCCCCCCCCCCNc1nc(NCCCCCCCCCCCC)nc(NCCN2CCN(C)CC2)n1      rule met
10  CCCCCCCCCCCCCCSc1nc(NCCCN(C)C)nc(SCCCCCCCC)n1  rule not met
11  CCCCCCCCCCCNc1nc(NCCCCCCCCCCC)nc(NCCN2CCCCC2)n1  rule not met
12  CCCCCCCCCCCCCCCCNc1nc(NCCCCCCCCCCCCC)nc(NCC2CCN(C)CC2)n1      rule met
13  CCCCCCCCCCCCNc1nc(NCCCCCC)nc(NCCN(C)C)n1      rule met
14  CCCCCCCCCCCCCCCSc1nc(NCCCN2CCN(C)CC2)nc(SCCCCCCCC)n1  rule not met
15  CCCCCCCCNc1nc(NCCCCCCCC)nc(NCCN2CCCCC2)n1      rule met

---

Each entry below carries its recorded Absolute mRNA transfection efficiency in HEK293 cells.
# Test system: HEK293 cells
# Experimental Details: Preliminary screening as mRNA vectors, EGFP mRNA transfection of HEK293 cells
# Format: cell-based
# Protocol Conditions: HEK293 cells, 96-well plates, EGFP mRNA 50 ng per well; percentage of GFP fluorescent cells relative to total number of cells (Hoechst)
Recorded Endpoint: Absolute mRNA transfection efficiency in HEK293 cells

>>> df
                            structure_smiles  reported_measurement
 0  CCCCCCCCCCCNc1nc(NCCCCCCCC)nc(NCCCN(C)C)n1                  0.1%
 1  CCCCCCCCCCCCCCCNc1nc(NCCCCCCC)nc(NCCCN(C)C)n1                  1.2%
 2  CCCCCCCCCCCCSc1nc(NCCN(CC)CC)nc(SCCCCCCCCC)n1                  3.4%
 3  CCCCCCCCCNc1nc(NCCCCCCCCC)nc(NCCN2CCCCC2)n1                  0.6%
 4  CCCCCCCCCCCCCCSc1nc(NCCCN2CCOCC2)nc(SCCCCCCCCCCCCCC)n1                  0.0%
 5  CCCCCCCCCCCCCCCCCCSc1nc(NCCN(CC)CC)nc(SCCCCCCCCCC)n1                  0.3%
 6  CCCCCCCCCCSc1nc(NCCN(C)C)nc(SCCCCCCCCCC)n1                  0.7%
 7  CCCCCCCCCCCCCCCCSc1nc(NCCN2CCCC2)nc(SCCCCCCCCCCCCCC)n1                  0.2%
 8  CCCCCCCCNc1nc(NCCCCCCCC)nc(NCCCN2CCN(C)CC2)n1                  0.0%
 9  CCCCCCCCCCCCCCCCSc1nc(NCCCN2CCOCC2)nc(SCCCCCCCCCCCCCC)n1                  0.0%
10  CCCCCCCCCCCCN(CCCCCCCCCCCC)c1nc(NCCN2CCOCC2)nc(N(CCCCCCCCCCCC)CCCCCCCCCCCC)n1                  1.9%
11  CCCCCCCCCCCCCCCCCCSc1nc(NCCN2CCN(C)CC2)nc(SCCCCCCCCC)n1                 22.0%
12  CCCCCCCCCCCCSc1nc(NCCCN2CCN(C)CC2)nc(SCCCCCCCCC)n1                 60.9%
13  CCCCCCCCCCCCCCCCNc1nc(NCCCCCCCCCCC)nc(NCCN2CCCC2)n1                  3.6%
14   CCCCCCCNc1nc(NCCCCCCC)nc(NCCN2CCOCC2)n1                  0.0%
15  CCCCCCCCCCCCCCCSc1nc(NCCN2CCCCC2)nc(SCCCCCCCC)n1                  2.6%

Origin of values: patent US20230123334A1
